Procedure Text: Pharmacokinetic two period crossover study of oral sumatriptan with or without anamorelin hydrochloride
Type: in vivo
Details: both sexes, human, plasma, 25 mg/dose, plasma sumatriptan, sumatriptan succinate 25 mg oral tablet, alone or with anamorelin HCl 100 mg oral, fasted healthy subjects, N = 22, read-out: AUC 0-30, Median
Quantity Kind: AUC(0-t) (ng·h/mL)

CNS(=O)(=O)Cc1ccc2[nH]cc(CCN(C)C)c2c1 : 2.56

====

Procedure Text: Pharmacokinetic two period crossover study of oral sumatriptan with or without anamorelin hydrochloride
Assay type: in vivo
Details: both sexes, human, plasma, 25 mg/dose, plasma sumatriptan, sumatriptan succinate 25 mg oral tablet, alone or with anamorelin HCl 100 mg oral, fasted healthy subjects, N = 22, read-out: Cmax, Mean
Quantity Kind: Cmax (µg/mL)

CNS(=O)(=O)Cc1ccc2[nH]cc(CCN(C)C)c2c1 : 0.0203

====

Procedure Text: Pharmacokinetic two period crossover study of oral sumatriptan with or without anamorelin hydrochloride
Type: in vivo
Details: both sexes, human, plasma, 25 mg/dose, plasma sumatriptan, sumatriptan succinate 25 mg oral tablet, alone or with anamorelin HCl 100 mg oral, fasted healthy subjects, N = 22, read-out: AUC 0-30, Mean
Quantity Kind: AUC(0-t) (ng·h/mL)

CNS(=O)(=O)Cc1ccc2[nH]cc(CCN(C)C)c2c1 : 2.53

====

Procedure Text: Pharmacokinetic two period crossover study of oral sumatriptan with or without anamorelin hydrochloride
Type: in vivo
Details: both sexes, human, plasma, 25 mg/dose, read-out: AUC last, Mean
Quantity Kind: AUC(0-t) (ng·h/mL)

CNS(=O)(=O)Cc1ccc2[nH]cc(CCN(C)C)c2c1 : 45.6

====

Procedure Text: Pharmacokinetic two period crossover study of oral sumatriptan with or without anamorelin hydrochloride
Type: in vivo
Details: both sexes, human, plasma, 25 mg/dose, plasma sumatriptan, sumatriptan succinate 25 mg oral tablet, alone or with anamorelin HCl 100 mg oral, fasted healthy subjects, N = 22, read-out: Cmax, Median
Quantity Kind: Cmax (ng/mL)

CNS(=O)(=O)Cc1ccc2[nH]cc(CCN(C)C)c2c1 : 20.4

====

Procedure Text: Pharmacokinetic two period crossover study of oral sumatriptan with or without anamorelin hydrochloride
Assay type: in vivo
Details: both sexes, human, plasma, 25 mg/dose, plasma sumatriptan, sumatriptan succinate 25 mg oral tablet, alone or with anamorelin HCl 100 mg oral, fasted healthy subjects, N = 22, read-out: Tmax, Mean (converted)
Quantity Kind: Tmax (h)

CNS(=O)(=O)Cc1ccc2[nH]cc(CCN(C)C)c2c1 : 1.12
